experiment: optical density shifts of acrAB sulA E. coli – strain DRC41, OD650, 48 h, E. coli filamentation inducer project, primary screen (AID 1152); settings: higher = more signal, called active from +8 up or from −8 down;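 also: E. coli MC1000 strain DRC41 lacking acrAB efflux pump and sulA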
measured-endpoint: z-score
Lab note: jot the number down without any unit.

1) CC1CC/C=C\[C@H]2OC34C=CCN(Cn5nnc6ccccc65)C(=O)[C@H]3N(CCCCCO)C(=O)[C@@H]4C2C(=O)O1 (stereo partly specified)
0.996

Please look up its z-score: C=CC[C@]1(C(=O)NCc2ccccc2)N=C(c2ccc(OCCCO)cc2)O[C@H]1c1ccccc1CN=[N+]=[N-]
-1.21

Repeat for the following molecule: COCCCNC(=O)[C@@]1(Cc2ccccc2)N=C(c2ccc(OCCCO)cc2)O[C@H]1c1ccccc1CN=[N+]=[N-]
0.576

Repeat for the following molecule: C=CCNC(=O)[C@@H]1[C@H]2C(=O)O[C@H](c3ccccc3)[C@H](c3ccccc3)N2[C@H](c2ccc(OCCO)cc2)[C@@]12C(=O)N(C(=O)OCCOC)c1ccc(C#CCNC(N)=O)cc12
1.43

Repeat for the following molecule: CC(C)Cc1ccc(CN2CC[C@@H](N)C2)cc1
-3.85

Repeat for the following molecule: O=C1NC(=O)C2C1C=CC(C(O)c1ccc(I)cc1)N2Nc1ccccn1 (stereo unspecified)
-1.29

---

assay: growth of efflux-deficient E. coli DRC39 – strain DRC39, OD650, 24 h, E. coli filamentation inducers, primary screen (AID 1178);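 also: growth measured as culture turbidity by optical density at 650 nm; test concentration not given here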; conditions: E. coli DRC39 acrAB, higher = more signal, called active from +8 up or from −8 down
Binary classification by z-score, with 0.4 as an inclusive lower bound for True; all other cases are False.

1. COC(=O)C(CC#Cc1ccc2c(c1)[C@]1(C(=O)N2)[C@H](c2ccccc2OCCO)N2[C@H](c3ccccc3)[C@H](c3ccccc3)OC(=O)[C@H]2[C@@H]1C(=O)O)C(=O)OC
True
2. O=C1O[C@H](c2ccccc2)[C@H](c2ccccc2)N2[C@H]1[C@@H](C(=O)NC[C@H](O)c1ccccc1)[C@]1(C(=O)Nc3ccc(C#CC4=CCCCC4)cc31)[C@H]2c1ccccc1OCCO
False
3. COCCOC(=O)N1C(=O)[C@@]2(c3ccccc31)[C@H](c1ccc(OCCO)cc1)N1[C@H](c3ccccc3)[C@H](c3ccccc3)OC(=O)[C@H]1[C@@H]2C(=O)N1CCc2cc(OC)c(OC)cc2C1
True
4. C=CCOC(=O)[C@H]1[C@@H]2C(=O)O[C@@H](c3ccccc3)[C@@H](c3ccccc3)N2[C@@H](c2ccc(OCCOC(=O)[C@H]3C[C@H]4C(=O)N[C@@H](CCCCN(C)C)C(=O)N4[C@H]3c3cccc(OCCO)c3)cc2)[C@]12C(=O)Nc1ccc(I)cc12
False
5. C=C(CCCC)C(=O)CC[C@@H](OC(C)=O)c1ccc(CO)o1
True
6. CCN(CC)c1ccc(N2CC=CC34O[C@@H]5C=CCOC(=O)[C@@H]5[C@H]3C(=O)N(CCCCCCO)[C@@H]4C2=O)cc1 (stereo partly specified)
True
7. COCCOC(=O)N1C(=O)[C@@]2(c3cc(C#CCCO)ccc31)[C@H](c1ccc(O)cc1)N1[C@H](c3ccccc3)[C@H](c3ccccc3)OC(=O)[C@H]1[C@@H]2C(=O)N1CCN(c2ncccn2)CC1
False
8. C=C(CCCC)/C(=C/C[C@@H](OC(C)=O)c1ccccc1OCCO)c1cc(C(=O)OC)ccc1OC
True
9. COCCOC(=O)N1C(=O)[C@@]2(c3cc(C#CC4(O)CCCCCC4)ccc31)[C@H](C(=O)Nc1nc3ccccc3s1)[C@H]1C(=O)O[C@H](c3ccccc3)[C@H](c3ccccc3)N1[C@@H]2c1ccc(OCCO)cc1
False
10. C=C(CCCC)/C(=C/C[C@H](OC(C)=O)c1ccccc1OCCO)c1cnc2ccccc2c1
False

Okay, now this compound:
hey, is z-score for this one >= 0.4? O=C1C2C=CC(C(O)COCc3ccccc3)N(Nc3ccc([N+](=O)[O-])cc3)C2C(=O)N1c1ccccc1 (stereo unspecified)
False

---

test: calcein-AM signal in unstimulated myeloma cells – cell-based, calcein-AM fluorescence, 48 h, PK04 Diversity Set, profiling panel (AID 1166); conditions: RPMI8226 myeloma viability, higher = more signal;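 also: cells grown under basal conditions without added stimulus; test concentration not given here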
measured-endpoint: z-score
Lab note: jot the number down without any unit.

The cases that follow already have their z-score on record.
1. COC(=O)[C@@]1(Cc2ccc(OC)cc2)[C@H]2c3cc(C(=O)N(C)C)n(Cc4ccc(C(F)(F)F)nc4)c3C[C@H]2CN1C(=O)c1ccccc1
-0.782
2. CN1C(=O)C2C=CC(C(O)c3ccc(F)cc3)N(N(c3ccccc3)c3ccccc3)C2C1=O (stereo not given)
-0.462
3. CC(=O)Nc1cc(Br)ccc1C(=O)NCc1ccccc1
0.0237
4. CC(C)Cc1ccc(CN2CC[C@@H](N)C2)cc1
-1.65

Please look up its z-score: COc1cc(CO)cc(I)c1O[C@H]1C=C(C(=O)NCCO)C[C@@H](NC[C@@H]2CCCO2)[C@@H]1O
0.327

---

biological target: Concanavalin-A (Canavalia ensiformis) (UniProt P02866); test: compounds binding concanavalin A lectin – biochemical, small-molecule microarray, Alexa647 label, 635 nm, artefact control for SMM control protein annotation, primary screen (AID 1127); details: ConA-A647 binding fluorescence, higher = more signal;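 also: z combines 667 nm emission intensity with signal-to-noise across three replicate slides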
Sequence (P02866 whole entry, looked up): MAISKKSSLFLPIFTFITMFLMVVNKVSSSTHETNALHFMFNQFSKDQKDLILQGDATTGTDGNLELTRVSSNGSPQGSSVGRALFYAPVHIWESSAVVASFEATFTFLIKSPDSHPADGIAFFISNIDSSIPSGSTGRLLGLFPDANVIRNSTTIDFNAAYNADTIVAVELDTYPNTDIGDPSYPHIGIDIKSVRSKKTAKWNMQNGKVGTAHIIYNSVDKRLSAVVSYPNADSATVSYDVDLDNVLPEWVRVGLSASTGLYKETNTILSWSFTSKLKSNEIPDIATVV
Classify by composite z-score. Ranges: LOW: < -0.1; MID: ≥ -0.1 and < 0.8; HIGH: ≥ 0.8

Before answering, review these 5 worked examples.
1) CCCCC(=C=CC[C@@H](O)c1ccc(CO)o1)CCO
MID
2) CCCCN1CC=CC23O[C@@H]4C=CCCOC(=O)C4[C@H]2C(=O)N(CCCCCO)[C@@H]3C1=O (stereo not given in full)
LOW
3) CCOc1cc(C(O)C2C=CC3C(=O)N(c4ccccc4)C(=O)C3N2Nc2ccc(C(C)C)cc2)ccc1O (stereo not given)
HIGH
4) C=CCNC(=O)[C@H]1[C@@H]2C(=O)O[C@@H](c3ccccc3)[C@@H](c3ccccc3)N2[C@@H](c2ccc(OCCO)cc2)[C@]12C(=O)Nc1ccc(C#CCC(C(=O)OC)C(=O)OC)cc12
HIGH
5) CC(CO)N1C(=O)[C@@H]2C3C(=O)OCCC/C=C\[C@H]3OC23C=CCN(CCN2CCOCC2)C(=O)[C@@H]13 (stereo not given in full)
MID

Returns: class label. Input: CCCCCCc1nc(-c2ccc(-c3ccc(Cl)c(Cl)c3)o2)cc2c1[Si](C(C)C)(C(C)C)O[C@H]2c1ccccc1
LOW

Repeat for the following compound: CC(C)[Si](C#CCCCC#N)(Oc1ccccc1Br)C(C)C
HIGH

---

system: Inhibin beta A chain (activin A); assay: small molecules binding activin A – biochemical, small-molecule microarray, 635 nm fluorescence scan, primary screen (AID 1107); conditions: INHBA, higher = more signal;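 also: mouse activin A protein probed at 4.33 µg/mL on printed slides; score merges bound-protein fluorescence near 667 nm with spot signal-to-noise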
composite z-score for assorted molecules
Lab note: jot the number down without any unit.

1) CC(=O)Nc1cc(Br)ccc1C(=O)NCc1ccccc1
0.305
2) O=C1NC(=O)C2C1C=CC(C(O)c1ccc(I)cc1)N2Nc1ccc(Cl)cc1Cl (centres undefined)
0.871

Form entry - test system: Inhibin beta A chain (activin A); read-out: composite z-score; molecule: NC(=O)[C@@H]1[C@H]2C(=O)O[C@H](c3ccccc3)[C@H](c3ccccc3)N2[C@H](c2ccc(O)cc2)[C@@]12C(=O)Nc1ccc(C#CC3=CCCCC3)cc12
0.763

Repeat for the following molecule: COCCOC(=O)N1C(=O)[C@@]2(c3cc(C#CC4=CCCCC4)ccc31)[C@H](c1ccc(OCCO)cc1)N1[C@H](c3ccccc3)[C@H](c3ccccc3)OC(=O)[C@H]1[C@@H]2C(=O)N1CCc2cc(OC)c(OC)cc2C1
0.942

Repeat for the following molecule: O=C1O[C@H](c2ccccc2)[C@H](c2ccccc2)N2[C@H]1[C@@H](C(=O)NC[C@H](O)c1ccccc1)[C@]1(C(=O)Nc3ccccc31)[C@H]2c1ccc(O)cc1
-1.04

Repeat for the following molecule: COc1ccc([C@H]2C[C@H]3C(Br)=C[C@@]2(CO)C(=O)[C@]32CO2)cc1
1.32

Repeat for the following molecule: COC(=O)[C@@]1(Cc2ccc(OC)cc2)[C@H]2c3cc(C(=O)N4CCCC4)n(CCc4ccc(O)c(O)c4)c3C[C@H]2CN1C(=O)c1ccccc1
1.76

Repeat for the following molecule: CO[C@H]1O[C@H](CO)[C@@H](OC(=O)Nc2ccccc2-c2ccccc2)[C@H](OC(=O)Nc2ccccc2-c2ccccc2)[C@@H]1OC(=O)Nc1ccccc1-c1ccccc1
0.0923

Repeat for the following molecule: COC(=O)[C@@]1(Cc2ccc(OC)cc2)[C@H]2c3cc(C(=O)N4CCCC4)n(CCCNc4ncc(C(F)(F)F)cc4Cl)c3C[C@H]2CN1C(=O)c1ccccc1
1.11

Repeat for the following molecule: COC(=O)C(CC#Cc1ccc2c(c1)[C@]1(C(=O)N2)[C@H](c2ccccc2OCCO)N2[C@H](c3ccccc3)[C@H](c3ccccc3)OC(=O)[C@H]2[C@@H]1C(N)=O)C(=O)OC
0.693

Repeat for the following molecule: Cc1c(NC(=O)/C(C#N)=C/c2cccc([N+](=O)[O-])c2)c(=O)n(-c2ccccc2)n1C
0.107
